The values you see were collected from patent US11548888B2.

Target Desc: KRas G12C (Homo sapiens, UniProt P01116, G12C)
Construct: NCI-H358 cells (ATCC CRL-5807) express KRas G12C
Sequence (P01116 1-188 isoform P01116-2 G12C): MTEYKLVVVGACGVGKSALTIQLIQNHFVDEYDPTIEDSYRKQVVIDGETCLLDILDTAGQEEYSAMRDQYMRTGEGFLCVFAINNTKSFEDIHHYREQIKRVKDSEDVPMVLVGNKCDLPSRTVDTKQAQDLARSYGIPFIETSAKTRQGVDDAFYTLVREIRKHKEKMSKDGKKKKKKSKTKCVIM
Experiment Notes: Inhibition of KRas G12C-dependent cell growth: Phospho-ERK in NCI-H358 cells
Measurement Conditions: NCI-H358 cells expressing KRas G12C; Phospho-ERK (Thr202/Tyr204) normalized to GAPDH; 3 hours compound; 4 parameter fit
Measurement Label: IC50 (µM)

Sample answers from the record:
Compound: C=CC(=O)N1CCN(c2ncnc3c(F)c(-c4cccc5ccccc45)ncc23)CC1 [Example 223]
Measurement Label: IC50
Endpoint Result: 10
--
Compound: COC/C=C/C(=O)N1CCN(c2nc(OC[C@@H]3C[C@@H](F)CN3C)nc3c(F)c(-c4cccc5cccc(Cl)c45)ncc23)C[C@@H]1CC#N [Example 44]
Measurement Label: IC50
Endpoint Result: 0.015
--
Compound: C=CC(=O)N1CCN(c2nc(OC[C@@H]3CCCN3C)nc3c(F)c(-c4cccc5cccc(Cl)c45)ncc23)C[C@@H]1CC#N [Example 19]
Measurement Label: IC50
Endpoint Result: 0.002
--
Compound: C=C(F)C(=O)N1CCN(c2nc(OC[C@@H]3CCCN3C)nc3c(F)c(-c4cccc5ccc(F)c(C)c45)ncc23)C[C@@H]1CC#N [Example 86]
Measurement Label: IC50
Endpoint Result: 0.014

1. C=CC(=O)N1CCN(c2nc(OC[C@@H]3CCCN3C)nc3c(F)c(-c4ccccc4F)ncc23)C[C@@H]1CC#N [Example 60]
2. CN1CC(F)(F)C[C@H]1COc1nc(N2CCN(C(=O)/C=C/CF)[C@@H](CC#N)C2)c2cnc(-c3cccc4cccc(Cl)c34)c(F)c2n1 [Example 25]
3. C=C(F)C(=O)N1CCN(c2nc(OCC34CCCN3CCC4)nc3c(F)c(-c4cccc5cccc(Cl)c45)ncc23)C[C@@H]1CC#N [Example 77]
4. C=C(F)C(=O)N1CCN(c2nc(OCC3CN(C)CC3(F)F)nc3c(F)c(-c4cccc5ccc(F)c(Cl)c45)ncc23)C[C@@H]1CC#N (single isomer, unassigned) [Example 179]
5. C=CC(=O)N1C[C@@H](C)N(c2ncnc3c(F)c(-c4cccc5ccc(F)c(Cl)c45)ncc23)[C@@H](C)C1 [Example 149]
Task: Arrange the 5 entries by IC50 so the values rise. Answer format: the labels, ordered as requested.
Output: 3, 2, 1, 4, 5
